src = ChEMBL document CHEMBL5252653

- experimental-details: Cardiotoxicity in Sprague-Dawley rat assessed as decrease in blood pressure at 20 to 80 microg/ml, iv administered as bolus dose measured for 45 mins by ECG analysis
- Type: toxicity, organism-based
- Design: scale not given: the % may be the effect or the level left
- conditions: in vivo, 0.75 h, at 20 to 80 µg/mL, dose 20-80 µg/ml
measurement-type: Activity (%)
Answers are plain numbers, in %.

Below: 3 compounds and their reported Activity.
compound	unit-text	value
CC(=O)OCn1cnc([C@@H](C)c2cccc(C)c2C)c1.Cl	%	29.66
CCC(=O)OC(C)n1cnc([C@@H](C)c2cccc(C)c2C)c1.Cl (some centres undefined)	%	32.17
COC(=O)COC(=O)OCn1cnc([C@@H](C)c2cccc(C)c2C)c1.Cl	%	31.3

Let us move to another entry and its Activity.
# input Given the entry "CCOC(=O)COC(=O)OCn1cnc([C@@H](C)c2cccc(C)c2C)c1.Cl" , report its measured Activity.
# output 28.49
